testedOn: T1, B3GNT2 (Homo sapiens, UniProt Q9NY97)
T1 construct: The respective ORFs of candidate genes [CD274 (NM_014143), MCL1 (NM_021960), JUNB (NM_002229), and B3GNT2 (NM_006577)] were synthesized; expressed in transfected cells; host or cells: A375 melanoma cells (lentiviral ORF overexpression)
T1 sequence (Q9NY97 1-397): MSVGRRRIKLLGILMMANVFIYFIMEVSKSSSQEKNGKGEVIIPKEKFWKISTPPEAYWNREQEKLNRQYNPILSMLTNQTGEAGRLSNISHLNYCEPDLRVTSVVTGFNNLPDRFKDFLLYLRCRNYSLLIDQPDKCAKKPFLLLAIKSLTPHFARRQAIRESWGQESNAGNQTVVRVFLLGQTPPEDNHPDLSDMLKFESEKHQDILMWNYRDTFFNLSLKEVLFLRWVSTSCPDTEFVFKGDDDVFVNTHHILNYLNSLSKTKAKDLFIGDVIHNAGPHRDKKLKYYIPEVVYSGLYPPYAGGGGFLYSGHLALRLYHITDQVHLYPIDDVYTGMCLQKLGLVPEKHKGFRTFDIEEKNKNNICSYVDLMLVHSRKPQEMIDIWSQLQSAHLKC
test: Co-IP of FLAG-tagged B3GNT2 followed by mass spectrometry
Type: cell-based
reportedConditions: Co-IP with IgG control antibody, N-terminally FLAG-tagged B3GNT2; mass spectrometry count, unit not given
quantity: N-term IgG
Provide a numeric answer; units are not to be included.

molecule: CASP14 (protein) MSNPRSLEEEKYDMSGARLALILCVTKAREGSEEDLDALEHMFRQLRFESTMKRDPTAEQFQEELEKFQQAIDSREDPVSCAFVVLMAHGREGFLKGEDGEMVKLENLFEALNNKNCQALRAKPKVYIIQACRGEQRDPGETVGGDEIVMVIKDSPQTIPTYTDALHVYSTVEGYIAYRHDQKGSCFIQTLVDVFTKRKGHILELLTEVTRRMAEAELVQEGKARKTNPEIQSTLRKRLYLQ
quantity: N-term IgG
experimentalResult: 3

molecule: SPRR1A (protein) MNSQQQKQPCTPPPQPQQQQVKQPCQPPPQEPCIPKTKEPCHPKVPEPCHPKVPEPCQPKVPEPCQPKVPEPCPSTVTPAPAQQKTKQK
quantity: N-term IgG
experimentalResult: 0

molecule: PSMB6 (protein) TTIMAVQFDGGVVLGADSRTTTGSYIANRVTDKLTPIHDRIFCCRSGSAADTQAVADAVTYQLGFHSIELNEPPLVHTAASLFKEMCYRYREDLMAGIIIAGWDPQEGGQVYSVPMGGMMVRQSFAIGGSGSSYIYGYVDATYREGMTKEECLQFTANALALAMERDGSSGGVIRLAAIAESGVERQVLLGDQIPKFAVATLPPA
quantity: N-term IgG
experimentalResult: 0

molecule: PIP (protein) QDNTRKIIIKNFDIPKSVRPNDEVTAVLAVQTELKECMVVKTYLISSIPLQGAFNYKYTACLCDDNPKTFYWDFYTNRTVQIAAVVDVIRELGICPDDAAVIPIKNNRFYTIEILKVE
quantity: N-term IgG
experimentalResult: 0

molecule: PRDX2 (protein) ASGNARIGKPAPDFKATAVVDGAFKEVKLSDYKGKYVVLFFYPLDFTFVCPTEIIAFSNRAEDFRKLGCEVLGVSVDSQFTHLAWINTPRKEGGLGPLNIPLLADVTRRLSEDYGVLKTDEGIAYRGLFIIDGKGVLRQITVNDLPVGRSVDEALRLVQAFQYTDEHGEVCPAGWKPGSDTIKPNVDDSKEYFSKHN
quantity: N-term IgG
experimentalResult: 5

Pending molecule:
Given the molecule MAGT1 (protein) QRKKEMVLSEKVSQLMEWTNKRPVIRMNGDKFRRLVKAPPRNYSVIVMFTALQLHRQCVVCKQADEEFQILANSWRYSSAFTNRIFFAMVDFDEGSDVFQMLNMNSAPTFINFPAKGKPKRGDTYELQVRGFSAEQIARWIADRTDVNIRVIRPPNYAGPLMLGLLLAVIGGLVYLRRSNMEFLFNKTGWAFAALCFVLAMTSGQMWNHIRGPPYAHKNPHTGHVNYIHGSSQAQFVAETHIVLLFNGGVTLGMVLLCEAATSDMDIGKRKIMCVAGIGLVVLFFSWMLSIFRSKYHGYPYSFLMS , write its reported N-term IgG.
0
